# Tested on: GABA-A receptor; anion channel
# Protocol notes: In vitro displacement of [3H]flunitrazepam from GABA-A central benzodiazepine receptor of rat cerebral cortex membranes
Catalogue of log10 of IC50 values
Experimental readout: log10 of IC50 (log10 of the value in nM)

CCOC(=O)CN1C(=O)c2[nH]cc3nc4ccccc4c-3c2C1O (stereo not drawn) | 1.85
CCOC1OC(=O)c2[nH]cc3nc4ccccc4c-3c21 (stereo not drawn) | 1.30
COC(=O)c1cc2c(cn1)[nH]c1ccccc12 [BETA-CCM] | 0.30
O=C1OC(=O)c2c1[nH]cc1nc3ccccc3c2-1 | 2.18
O=C1OC(CO)c2c1[nH]cc1nc3ccccc3c2-1 (stereo not drawn) | -0.70
O=C1OC(O)c2c1[nH]cc1nc3ccccc3c2-1 (stereo not drawn) | 1.67
CC1OC(=O)c2[nH]cc3nc4ccccc4c-3c21 (stereo not drawn) | 1.30
COC1OC(=O)c2[nH]cc3nc4ccccc4c-3c21 (stereo not drawn) | 1.08
